# TARGET UNDER TEST: mAChR M4 (Homo sapiens)
# Construct: expressed in transfected cells; host or cells: CHO-K1 cells stably transfected with M4 cDNA and chimeric G-protein Gqi5
# Sequence (P08173 1-479): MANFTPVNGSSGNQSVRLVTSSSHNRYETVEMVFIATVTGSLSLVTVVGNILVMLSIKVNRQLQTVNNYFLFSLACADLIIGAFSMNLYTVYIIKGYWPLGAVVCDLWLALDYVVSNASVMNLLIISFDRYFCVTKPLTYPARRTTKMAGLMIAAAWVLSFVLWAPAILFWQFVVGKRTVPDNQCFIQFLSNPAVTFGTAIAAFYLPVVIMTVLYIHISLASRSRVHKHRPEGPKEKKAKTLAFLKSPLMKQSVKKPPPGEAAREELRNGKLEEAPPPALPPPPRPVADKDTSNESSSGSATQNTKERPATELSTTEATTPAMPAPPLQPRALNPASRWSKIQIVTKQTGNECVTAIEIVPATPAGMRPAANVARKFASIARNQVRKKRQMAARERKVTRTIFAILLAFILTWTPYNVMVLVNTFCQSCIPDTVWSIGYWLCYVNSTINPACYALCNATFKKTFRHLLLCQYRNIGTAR
# MEASUREMENT PROTOCOL: mAChR M4 cell-based functional assay (calcium mobilization, potentiation of EC20 acetylcholine response)
# ASSAY SETUP: % ACh maximum at 30 μM
Lab note - cut at 70% for Emax at 30 µM: rule met if strictly below, rule not met if not.

MOLECULE: COc1ccc(C#CCNC(=O)c2sc3nnc(C)c(C)c3c2N)cc1 [Example B373]
TARGET UNDER TEST: mAChR M4 (Homo sapiens)
LABEL CLASS: rule met
--
MOLECULE: Cc1nnc2sc(C(=O)NC3CCN(C(=O)C4CCC4)C3)c(N)c2c1C (centres unmarked) [Example B239]
TARGET UNDER TEST: mAChR M4 (Homo sapiens)
LABEL CLASS: rule not met
--
MOLECULE: COc1cccc(C(=O)N2CCC(NC(=O)c3sc4nnc(C)c(C)c4c3N)C2)c1 (centres unmarked) [Example B231]
TARGET UNDER TEST: mAChR M4 (Homo sapiens)
LABEL CLASS: rule not met
--
MOLECULE: Nc1c(C(=O)NCc2cccc(F)c2F)sc2nnccc12 [Example B18]
TARGET UNDER TEST: mAChR M4 (Homo sapiens)
LABEL CLASS: rule met
--
MOLECULE: Cc1nnc2sc(C(=O)NCC3CC3)c(N)c2c1C [Example B6]
TARGET UNDER TEST: mAChR M4 (Homo sapiens)
LABEL CLASS: rule not met
--
MOLECULE: Nc1c(C(=O)NCC2CC2)sc2nnc3c(c12)CCCC3 [Example B54]
TARGET UNDER TEST: mAChR M4 (Homo sapiens)
LABEL CLASS: rule met
--
MOLECULE: Cc1nnc2sc(C(=O)NCCc3ccncc3)c(N)c2c1C [Example B93]
TARGET UNDER TEST: mAChR M4 (Homo sapiens)
LABEL CLASS: rule met
--
MOLECULE: Cc1nnc2sc(C(=O)NCc3ccc(C4(S(C)(=O)=O)CC4)cc3)c(N)c2c1C [Example B105]
TARGET UNDER TEST: mAChR M4 (Homo sapiens)
LABEL CLASS: rule met
--
MOLECULE: Nc1c(C(=O)NCc2ccc3c(c2)OCCO3)sc2nnc3c(c12)CCCC3 [Example B56]
TARGET UNDER TEST: mAChR M4 (Homo sapiens)
LABEL CLASS: rule met
--
MOLECULE: Cc1nnc2sc(C(=O)NCc3ccc(-c4cnc5ccccc5c4)cc3)c(N)c2c1C [Example B497]
TARGET UNDER TEST: mAChR M4 (Homo sapiens)
LABEL CLASS: rule met
--
MOLECULE: Cc1nnc2sc(C(=O)NCc3ccncc3)c(N)c2c1C [Example B14]
TARGET UNDER TEST: mAChR M4 (Homo sapiens)
LABEL CLASS: rule not met
--
MOLECULE: Cc1nnc2sc(C(=O)N3CC(NC(=O)OCc4ccccc4)C3)c(N)c2c1C [Example B190]
TARGET UNDER TEST: mAChR M4 (Homo sapiens)
LABEL CLASS: rule met
--
MOLECULE: Cc1nnc2sc(C(=O)N3CC4CN(S(C)(=O)=O)CC4C3)c(N)c2c1C (centres unmarked) [Example B277]
TARGET UNDER TEST: mAChR M4 (Homo sapiens)
LABEL CLASS: rule met
--
MOLECULE: Cc1nnc2sc(C(=O)NC3CCN(C(=O)CCCc4ccccc4)C3)c(N)c2c1C (centres unmarked) [Example B258]
TARGET UNDER TEST: mAChR M4 (Homo sapiens)
LABEL CLASS: rule met
--
MOLECULE: COc1cccc(SC2CN(C(=O)c3sc4nnc(C)c(C)c4c3N)C2)c1 [Example B418]
TARGET UNDER TEST: mAChR M4 (Homo sapiens)
LABEL CLASS: rule met
--
MOLECULE: Nc1c(C(=O)NCc2ccccc2)sc2nnccc12 [Example B19]
TARGET UNDER TEST: mAChR M4 (Homo sapiens)
LABEL CLASS: rule met
--
MOLECULE: COC1(C2CCCCC2)CN(C(=O)c2sc3nnc(C)c(C)c3c2N)C1 [Example B304]
TARGET UNDER TEST: mAChR M4 (Homo sapiens)
LABEL CLASS: rule met
--
MOLECULE: Cc1nnc2sc(C(=O)NC3CCN(S(C)(=O)=O)C3)c(N)c2c1C (centres unmarked) [Example B252]
TARGET UNDER TEST: mAChR M4 (Homo sapiens)
LABEL CLASS: rule not met
--
MOLECULE: Cc1nnc2sc(C(=O)NCc3ccc(-c4ccccc4O)cc3)c(N)c2c1C [Example B494]
TARGET UNDER TEST: mAChR M4 (Homo sapiens)
LABEL CLASS: rule not met
--
MOLECULE: Cc1nnc2sc(C(=O)NC3CCN(C(=O)c4ccc(F)cc4F)C3)c(N)c2c1C (centres unmarked) [Example B228]
TARGET UNDER TEST: mAChR M4 (Homo sapiens)
LABEL CLASS: rule not met
--
MOLECULE: CC(=O)NCCNC(=O)c1sc2nnc(C)c(C)c2c1N [Example B366]
TARGET UNDER TEST: mAChR M4 (Homo sapiens)
LABEL CLASS: rule met
--
MOLECULE: COc1ccc(NC(=O)N2CC(NC(=O)c3sc4nnc(C)c(C)c4c3N)C2)cc1 [Example B371]
TARGET UNDER TEST: mAChR M4 (Homo sapiens)
LABEL CLASS: rule met
--
MOLECULE: Cc1nnc2sc(C(=O)NC3CCN(C(=O)C4CC4c4ccccc4)C3)c(N)c2c1C (centres unmarked) [Example B247]
TARGET UNDER TEST: mAChR M4 (Homo sapiens)
LABEL CLASS: rule not met
--
MOLECULE: Cc1nnc2sc(C(=O)NCc3cccc(-c4ccccc4)c3)c(N)c2c1C [Example B469]
TARGET UNDER TEST: mAChR M4 (Homo sapiens)
LABEL CLASS: rule met
--
MOLECULE: CC(=O)NC1CN(C(=O)c2sc3nnc(C)c(C)c3c2N)C1 [Example B157]
TARGET UNDER TEST: mAChR M4 (Homo sapiens)
LABEL CLASS: rule met
--
MOLECULE: Cc1nnc2sc(C(=O)N3CC(S(=O)(=O)c4ccc(F)c(F)c4)C3)c(N)c2c1C [Example B415]
TARGET UNDER TEST: mAChR M4 (Homo sapiens)
LABEL CLASS: rule met
--
MOLECULE: Cc1nnc2sc(C(=O)NC3CN(S(=O)(=O)c4ccc(F)cc4F)C3)c(N)c2c1C [Example B146]
TARGET UNDER TEST: mAChR M4 (Homo sapiens)
LABEL CLASS: rule not met
--
MOLECULE: Cc1nnc2sc(C(=O)NC3CCN(C(=O)C4CCCCC4)C3)c(N)c2c1C (centres unmarked) [Example B226]
TARGET UNDER TEST: mAChR M4 (Homo sapiens)
LABEL CLASS: rule not met
--
MOLECULE: Cc1ccccc1OC(=O)N1CC(NC(=O)c2sc3nnc(C)c(C)c3c2N)C1 [Example B361]
TARGET UNDER TEST: mAChR M4 (Homo sapiens)
LABEL CLASS: rule not met
--
MOLECULE: COc1ccc(C2CCN(C(=O)c3sc4nnc(C)c(C)c4c3N)C2)cc1 (centres unmarked) [Example B164]
TARGET UNDER TEST: mAChR M4 (Homo sapiens)
LABEL CLASS: rule met
